system: Escherichia coli TOP10; assay: shrunken log2 fold change of peptide-encoding DNA abundance (4.5 h post-induction vs induction); higher = less antimicrobial activity (less host growth inhibition); settings: time post-induction: 4.5 h; library: site-saturation at positions 5, 18, 19, 20;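 also: peptides expressed intracellularly from a pBAD plasmid library in pooled LB shake-flask culture, induced with 0.3% L-arabinose, DNA abundance read by NGS, three biological replicates, DESeq2 with apeglm shrinkage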
We use -0.01 as the dividing line for shrunken log2 fold change: on or above the line is satisfied, below is not satisfied.

Is shrunken log2 fold change for RRIRPRPPRLPRPRPRPWASPRP at or above -0.01? satisfied

Is shrunken log2 fold change for RRIRARPPRLPRPRPRPRCHPRP at or above -0.01? satisfied

Is shrunken log2 fold change for RRIRGRPPRLPRPRPRPPMTPRP at or above -0.01? satisfied

Is shrunken log2 fold change for RRIRERPPRLPRPRPRPDVEPRP at or above -0.01? satisfied

Is shrunken log2 fold change for RRIRKRPPRLPRPRPRPYVKPRP at or above -0.01? not satisfied

Is shrunken log2 fold change for RRIRYRPPRLPRPRPRPVPWPRP at or above -0.01? satisfied

Is shrunken log2 fold change for RRIRWRPPRLPRPRPRPGDGPRP at or above -0.01? satisfied

Is shrunken log2 fold change for RRIRVRPPRLPRPRPRPQAMPRP at or above -0.01? satisfied

Is shrunken log2 fold change for RRIRSRPPRLPRPRPRPQSNPRP at or above -0.01? not satisfied

Is shrunken log2 fold change for RRIRGRPPRLPRPRPRPKWYPRP at or above -0.01? satisfied

Is shrunken log2 fold change for RRIRARPPRLPRPRPRPYDSPRP at or above -0.01? not satisfied

Is shrunken log2 fold change for RRIRSRPPRLPRPRPRPISDPRP at or above -0.01? satisfied

Is shrunken log2 fold change for RRIRWRPPRLPRPRPRPQQEPRP at or above -0.01? satisfied

Is shrunken log2 fold change for RRIRCRPPRLPRPRPRPLDAPRP at or above -0.01? satisfied

Is shrunken log2 fold change for RRIRVRPPRLPRPRPRPKSKPRP at or above -0.01? not satisfied

Is shrunken log2 fold change for RRIRGRPPRLPRPRPRPYPWPRP at or above -0.01? satisfied

Is shrunken log2 fold change for RRIRGRPPRLPRPRPRPQFSPRP at or above -0.01? satisfied

Is shrunken log2 fold change for RRIRMRPPRLPRPRPRPCPQPRP at or above -0.01? satisfied

Is shrunken log2 fold change for RRIRYRPPRLPRPRPRPTITPRP at or above -0.01? not satisfied

Is shrunken log2 fold change for RRIRGRPPRLPRPRPRPFVNPRP at or above -0.01? not satisfied

Is shrunken log2 fold change for RRIRERPPRLPRPRPRPPAKPRP at or above -0.01? satisfied

Is shrunken log2 fold change for RRIRDRPPRLPRPRPRPALTPRP at or above -0.01? satisfied

Is shrunken log2 fold change for RRIRHRPPRLPRPRPRPDAIPRP at or above -0.01? not satisfied

Is shrunken log2 fold change for RRIRKRPPRLPRPRPRPPWQPRP at or above -0.01? satisfied

Is shrunken log2 fold change for RRIRGRPPRLPRPRPRPHEVPRP at or above -0.01? satisfied

Is shrunken log2 fold change for RRIRPRPPRLPRPRPRPFPEPRP at or above -0.01? satisfied

Is shrunken log2 fold change for RRIRGRPPRLPRPRPRPMLIPRP at or above -0.01? satisfied

Is shrunken log2 fold change for RRIRRRPPRLPRPRPRPTDAPRP at or above -0.01? satisfied

Is shrunken log2 fold change for RRIRDRPPRLPRPRPRPFLYPRP at or above -0.01? satisfied

Is shrunken log2 fold change for RRIRERPPRLPRPRPRPHNAPRP at or above -0.01? not satisfied

Is shrunken log2 fold change for RRIRERPPRLPRPRPRPEHEPRP at or above -0.01? not satisfied

Is shrunken log2 fold change for RRIRERPPRLPRPRPRPCMRPRP at or above -0.01? not satisfied

Is shrunken log2 fold change for RRIRERPPRLPRPRPRPTMFPRP at or above -0.01? not satisfied

Is shrunken log2 fold change for RRIRARPPRLPRPRPRPIGIPRP at or above -0.01? satisfied

Is shrunken log2 fold change for RRIRFRPPRLPRPRPRPWKHPRP at or above -0.01? not satisfied

Is shrunken log2 fold change for RRIRQRPPRLPRPRPRPFIFPRP at or above -0.01? not satisfied

Is shrunken log2 fold change for RRIRFRPPRLPRPRPRPQIDPRP at or above -0.01? satisfied

Is shrunken log2 fold change for RRIRVRPPRLPRPRPRPNLQPRP at or above -0.01? satisfied

Is shrunken log2 fold change for RRIRTRPPRLPRPRPRPKKLPRP at or above -0.01? not satisfied

Is shrunken log2 fold change for RRIRYRPPRLPRPRPRPAAFPRP at or above -0.01? not satisfied

Is shrunken log2 fold change for RRIRERPPRLPRPRPRPLINPRP at or above -0.01? not satisfied

Is shrunken log2 fold change for RRIRERPPRLPRPRPRPFSNPRP at or above -0.01? not satisfied

Is shrunken log2 fold change for RRIRRRPPRLPRPRPRPYNCPRP at or above -0.01? satisfied

Is shrunken log2 fold change for RRIRQRPPRLPRPRPRPKDMPRP at or above -0.01? satisfied

Is shrunken log2 fold change for RRIRTRPPRLPRPRPRPFTHPRP at or above -0.01? not satisfied

Is shrunken log2 fold change for RRIRSRPPRLPRPRPRPFYQPRP at or above -0.01? not satisfied

Is shrunken log2 fold change for RRIRMRPPRLPRPRPRPPMDPRP at or above -0.01? satisfied

Is shrunken log2 fold change for RRIRERPPRLPRPRPRPGHMPRP at or above -0.01? not satisfied

Is shrunken log2 fold change for RRIRKRPPRLPRPRPRPVWQPRP at or above -0.01? satisfied

Is shrunken log2 fold change for RRIRTRPPRLPRPRPRPAMGPRP at or above -0.01? satisfied

Is shrunken log2 fold change for RRIRMRPPRLPRPRPRPELNPRP at or above -0.01? satisfied

Is shrunken log2 fold change for RRIRKRPPRLPRPRPRPGRMPRP at or above -0.01? satisfied

Is shrunken log2 fold change for RRIRWRPPRLPRPRPRPGIWPRP at or above -0.01? satisfied

Is shrunken log2 fold change for RRIRPRPPRLPRPRPRPFVWPRP at or above -0.01? not satisfied

Is shrunken log2 fold change for RRIRFRPPRLPRPRPRPVPVPRP at or above -0.01? satisfied

Is shrunken log2 fold change for RRIRTRPPRLPRPRPRPTSKPRP at or above -0.01? not satisfied

Is shrunken log2 fold change for RRIRQRPPRLPRPRPRPQWYPRP at or above -0.01? not satisfied

Is shrunken log2 fold change for RRIRNRPPRLPRPRPRPEINPRP at or above -0.01? satisfied

Is shrunken log2 fold change for RRIRKRPPRLPRPRPRPQKAPRP at or above -0.01? not satisfied

Is shrunken log2 fold change for RRIRSRPPRLPRPRPRPQVWPRP at or above -0.01? satisfied

Is shrunken log2 fold change for RRIRMRPPRLPRPRPRPFIGPRP at or above -0.01? not satisfied
